Study system: ACE1 (Homo sapiens, UniProt P12821)
Construct: purchased Dojindo Laboratories
Sequence (P12821 30-1306): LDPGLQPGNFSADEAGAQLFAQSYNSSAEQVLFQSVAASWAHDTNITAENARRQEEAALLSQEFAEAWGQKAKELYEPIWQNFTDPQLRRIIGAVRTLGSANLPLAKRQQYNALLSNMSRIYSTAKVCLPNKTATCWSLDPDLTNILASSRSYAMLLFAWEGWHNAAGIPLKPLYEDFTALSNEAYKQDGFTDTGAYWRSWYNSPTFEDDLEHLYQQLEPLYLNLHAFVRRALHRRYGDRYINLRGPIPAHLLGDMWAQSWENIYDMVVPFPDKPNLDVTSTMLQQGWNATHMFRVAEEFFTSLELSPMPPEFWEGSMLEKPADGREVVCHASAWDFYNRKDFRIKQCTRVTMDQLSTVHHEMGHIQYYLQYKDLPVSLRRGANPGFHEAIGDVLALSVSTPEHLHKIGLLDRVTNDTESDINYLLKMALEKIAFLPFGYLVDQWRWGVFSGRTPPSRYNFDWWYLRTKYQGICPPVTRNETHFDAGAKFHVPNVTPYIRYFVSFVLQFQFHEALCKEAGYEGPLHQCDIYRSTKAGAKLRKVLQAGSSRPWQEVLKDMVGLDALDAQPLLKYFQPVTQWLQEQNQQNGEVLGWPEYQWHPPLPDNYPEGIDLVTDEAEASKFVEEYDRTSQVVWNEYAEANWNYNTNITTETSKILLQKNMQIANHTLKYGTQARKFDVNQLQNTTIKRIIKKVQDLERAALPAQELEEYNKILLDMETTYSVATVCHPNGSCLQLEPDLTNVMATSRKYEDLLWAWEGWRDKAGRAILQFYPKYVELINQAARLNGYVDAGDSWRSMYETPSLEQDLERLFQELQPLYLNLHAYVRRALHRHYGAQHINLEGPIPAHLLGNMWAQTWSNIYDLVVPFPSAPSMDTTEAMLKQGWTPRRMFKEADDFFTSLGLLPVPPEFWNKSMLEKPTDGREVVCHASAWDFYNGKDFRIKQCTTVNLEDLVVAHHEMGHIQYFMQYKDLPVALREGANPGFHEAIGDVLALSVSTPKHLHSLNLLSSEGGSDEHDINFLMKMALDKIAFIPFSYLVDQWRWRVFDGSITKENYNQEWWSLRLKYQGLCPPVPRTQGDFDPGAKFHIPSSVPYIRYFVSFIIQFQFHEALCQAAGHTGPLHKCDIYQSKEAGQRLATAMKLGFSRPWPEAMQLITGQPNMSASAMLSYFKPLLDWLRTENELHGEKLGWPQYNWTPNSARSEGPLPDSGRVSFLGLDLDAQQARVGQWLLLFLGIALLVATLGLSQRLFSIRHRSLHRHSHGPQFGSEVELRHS
Measurement protocol: In vitro ACE1 inhibition assay (colorimetric ACE1 Kit-WST, absorbance 450 nm)
Assay type: biochemical
Particulars: IC50 (μM) ± SD against ACE1, mean ± SD of three independent experiments (triplicate runs)
No end group written: not given here.
Consider the following substances and their measured IC50 readings.

Substance	IC50
LVVYPWTQR [LVVHem6]	6.45 µM
LVVYPWTR [Camel LVVHem5]	6.88 µM
LVVYPWTQ [LVVHem5]	20.1 µM
VVYPWTQR [VVHem6]	12.7 µM
LVVYPWTRR [Camel LVVHem6]	5.12 µM
YPWTRRF [Camel Hem7, Tyr-Pro-Trp-Thr-Arg-Arg-Phe]	23.6 µM

---

Study system: ACE1 (Homo sapiens)
Construct: purchased Dojindo Laboratories
Measurement protocol: In vitro ACE1 inhibition assay (colorimetric ACE1 Kit-WST, absorbance 450 nm)
Assay type: biochemical
Particulars: IC50 values of initial single-run peptide screening, single run at 0, 10, 50, 100, 200 and 500 µM; unit not given for IC50
No end group written: not given here.

Substance	IC50 [µM]
LVVYPWTRR [Camel LVVHem6]	25.9
LVVYPWTQ [LVVHem5]	36.7
VVYPWTRRF [Camel VVHem7]	51.4
VVYPWTRR [Camel VVHem6]	44.1
LVVYPWTR [Camel LVVHem5]	21.2
YPWTQRF [Hem7, Tyr-Pro-Trp-Thr-Gln-Arg-Phe]	95.1
VVYPWTQR [VVHem6]	30.3
YPWTRRF [Camel Hem7, Tyr-Pro-Trp-Thr-Arg-Arg-Phe]	44.1
YPWTQR [Hem6, Tyr-Pro-Trp-Thr-Gln-Arg]	80.2
LVVYPWTQR [LVVHem6]	14.9
